Target: R420A DXP synthase (Escherichia coli, UniProt P77488, R420A)
Assay: biochemical
quantity_name: pKd
Units for pKd: none; it is -log10 of a concentration expressed in mol/L.

The compound CC(=O)C(=O)O [pyruvate] showed pKd equal to 4.43

----------
Target: R478A DXP synthase (Escherichia coli, UniProt P77488, R478A)
Assay: biochemical
quantity_name: pKd
Scale for pKd: -log10 of concentration given in mol/L; no unit attached.

pKd measured on CC(=O)C(=O)O [pyruvate] = 4.10

----------
Molecular target: wild type DXP synthase (Escherichia coli)
Assay: Substrate binding by intrinsic total protein fluorescence
Parameters: species or system E. coli
quantity_name: Kd (µM)
# output: bare number, implied unit µM

compound	study_system	unit_symbol	Kd
O=C[C@H](O)COP(=O)(O)O [D-GAP, D-glyceraldehyde 3-phosphate]	wild type DXP synthase (Escherichia coli)	µM	2000

Just so you know, measured Kd for CC(=O)C(=O)O [pyruvate] came out at 230
